target-entity: human cGAS (residues 161-522) (Homo sapiens, UniProt Q8N884)
Construct: Recombinantly expressed purified human cGAS (residues 161-522) was used at 25 nM; made in house
Sequence (Q8N884 161-522): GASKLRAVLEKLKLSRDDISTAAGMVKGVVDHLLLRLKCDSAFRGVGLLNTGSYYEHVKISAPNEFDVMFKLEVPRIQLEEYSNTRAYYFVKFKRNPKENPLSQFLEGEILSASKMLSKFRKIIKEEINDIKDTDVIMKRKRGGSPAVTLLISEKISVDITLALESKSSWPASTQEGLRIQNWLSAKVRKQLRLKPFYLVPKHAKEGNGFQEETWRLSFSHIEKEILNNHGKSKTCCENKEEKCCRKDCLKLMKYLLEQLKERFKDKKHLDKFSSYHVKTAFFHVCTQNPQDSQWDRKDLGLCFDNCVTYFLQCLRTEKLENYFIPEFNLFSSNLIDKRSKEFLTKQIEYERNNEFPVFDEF
measurement-protocol: cGAS Activity Assay—Malachite Green
Type: biochemical
Experimental: Compounds were tested for cGAS inhibition in a coupled enzymatic assay based on Phosphate detection by Malachite Green. Final assay conditions were 20 mM TRIS pH 7.5 (Applichem), 5 mM MgCl2 (Sigma) and 0.01% BSA (Sigma) supplemented with 80 μM ATP (Sigma), 80 μM GTP (Sigma) and 100 nM Interferon Stimulating DNA (ISD) (Microsynth). […] Table 5 provides IC50 values (μM) for cGAS inhibition obtained for particular examples of the present invention as measured by the above-described assay.
# label = 1 if IC50 < 800 nM else 0

compound=CCCc1cc(=O)n2nc(NCc3ccc(-c4ccccc4)cc3Cl)nc2[nH]1 label_class=1
compound="CCCc1cc(=O)n2nc(NC(C)c3ccc(-c4ccccc4)cc3)nc2[nH]1 (stereo not drawn)" label_class=0
compound=CCCc1cc(=O)n2nc(NCc3ccc(OCC)cc3Cl)nc2[nH]1 label_class=0
compound=O=c1cc(CNc2ccccc2)[nH]c2nc(NCc3ccc(Cl)cc3Cl)nn12 label_class=0

**Query** Input CCCc1cc(=O)n2nc(NCc3cc(-c4cccnc4)ccc3Cl)nc2[nH]1 ; condition: IC50 strictly below 800 nM. Does it hold?
**Result** 1

**Query** Input O=c1cc(CCCC(F)F)[nH]c2nc(NCc3ccc(Cl)cc3Cl)nn12 ; condition: IC50 strictly below 800 nM. Does it hold?
**Result** 0

**Query** Input CCCc1cc(=O)n2nc(NCc3cc(-c4ccncc4)ccc3Cl)nc2[nH]1 ; condition: IC50 strictly below 800 nM. Does it hold?
**Result** 1

**Query** Input O=c1cc(CCc2ccccc2)[nH]c2nc(NCc3ccc(Cl)cc3Cl)nn12 ; condition: IC50 strictly below 800 nM. Does it hold?
**Result** 0

====

Recorded IC50 for the following compounds
target-entity: human cGAS (residues 161-522) (Homo sapiens)
Construct: Recombinantly expressed purified human cGAS (residues 161-522) was used at 25 nM; made in house
measurement-protocol: cGAS Activity Assay—Malachite Green
Assay type: biochemical
settings: cGAS inhibition; 25 nM cGAS, 80 μM ATP, 80 μM GTP, 100 nM ISD, 4 hour at RT, Malachite Green phosphate detection; read-out: IC50 cGAS

Here's what some known entries look like.
compound="O=c1cc(CC2CC2)[nH]c2nc(NCc3ccc(Cl)cc3Cl)nn12 [Example 63]" experimental_result="3590 nM"
compound="O=c1cc(CC2CCC2)[nH]c2nc(NCc3ccc(Cl)cc3Cl)nn12 [Example 65]" experimental_result="1590 nM"
compound="CCCCc1cc(=O)n2nc(NCc3cc(-c4ccccc4)nn3C)nc2[nH]1 [Example 44]" experimental_result="6570 nM"
compound="CCCCc1cc(=O)n2nc(NCc3cc(-c4ccccc4)on3)nc2[nH]1 [Example 46]" experimental_result="805 nM"

**Query** Consider the compound shown here: CCCc1cc(=O)n2nc(NCc3ccc(OC(C)C)cc3)nc2[nH]1 [Example 53] What is its recorded IC50?
**Result** 2660 nM

**Query** Consider the compound shown here: CCCc1cc(=O)n2nc(NCc3cnc(N4CCOCC4)cc3Cl)nc2[nH]1 [Example 99] What is its recorded IC50?
**Result** 2190 nM

====

Recorded pIC50 for the following compounds
target-entity: human cGAS (residues 161-522) (Homo sapiens, UniProt Q8N884)
Construct: Recombinantly expressed purified human cGAS (residues 161-522) was used at 25 nM; made in house
measurement-protocol: cGAS Activity Assay—Malachite Green
Type: biochemical
// field semantics: pIC50 = negative decimal log of concentration (mol/L)

Here's what some known entries look like.
sample_smiles=CC(C)c1ccc(CNc2nc3[nH]c(Cc4ccccc4)cc(=O)n3n2)cc1 readout=pIC50 experimental_result=5.57
sample_smiles=CCCc1cc(=O)n2nc(NCc3cccc(-c4ccn(C)n4)c3)nc2[nH]1 readout=pIC50 experimental_result=5.71

Continue with the next compound.
**Query** Consider the compound shown here: CCCc1cc(=O)n2nc(NCc3ccc(OCc4ccccc4)cc3)nc2[nH]1 What is its recorded pIC50?
**Result** 5.39

====

target-entity: human cGAS (residues 161-522) (Homo sapiens, UniProt Q8N884)
Construct: Recombinantly expressed purified human cGAS (residues 161-522) was used at 25 nM; made in house
measurement-protocol: cGAS Activity Assay—Malachite Green
Format: biochemical
settings: cGAS inhibition; 25 nM cGAS, 80 μM ATP, 80 μM GTP, 100 nM ISD, 4 hour at RT, Malachite Green phosphate detection; read-out: IC50 cGAS
pIC50: −log10 of the molar value.
Outcome label depends on pIC50 relative to 6: at/above gives Condition met, below gives Condition not met.

Examples with answers:
molecule=CCCc1cc(=O)n2nc(NCc3ccc(OC)cc3F)nc2[nH]1 label_class="Condition not met"
molecule=CCCc1cc(=O)n2nc(NCc3ccc(-n4cccn4)cc3)nc2[nH]1 label_class="Condition not met"
molecule=CCCc1cc(=O)n2nc(NCc3cc(-c4ccn(C)n4)ccc3OC)nc2[nH]1 label_class="Condition not met"

**Query** Could you verify whether the entry CCCc1cc(=O)n2nc(NCc3ccc(-c4ncccn4)cc3)nc2[nH]1 shows pIC50 of no less than 6?
**Result** Condition not met

**Query** Could you verify whether the entry Cn1ccc(-c2ccc(Cl)c(CNc3nc4[nH]c(Cc5ccccc5)cc(=O)n4n3)c2)n1 shows pIC50 of no less than 6?
**Result** Condition met

**Query** Could you verify whether the entry CCCCc1cc(=O)n2nc(NCc3cc(C4CC4)on3)nc2[nH]1 shows pIC50 of no less than 6?
**Result** Condition not met

**Query** Could you verify whether the entry CCCc1cc(=O)n2nc(NCc3cc(-c4cccnn4)ccc3Cl)nc2[nH]1 shows pIC50 of no less than 6?
**Result** Condition not met

**Query** Could you verify whether the entry CCCc1cc(=O)n2nc(NCc3ccc(OCC)cc3)nc2[nH]1 shows pIC50 of no less than 6?
**Result** Condition not met

**Query** Could you verify whether the entry CCCc1cc(=O)n2nc(NCc3ccc4ncccc4c3)nc2[nH]1 shows pIC50 of no less than 6?
**Result** Condition not met

====

target-entity: human cGAS (residues 161-522) (Homo sapiens, UniProt Q8N884)
Construct: Recombinantly expressed purified human cGAS (residues 161-522) was used at 25 nM; made in house
measurement-protocol: cGAS Activity Assay—Malachite Green
Assay type: biochemical
readout: IC50 (nM)
Return type: number; implicit unit nM.

**Query** Consider the compound shown here: CCCc1cc(=O)n2nc(NCc3ccc(OCc4ccccc4)cc3Cl)nc2[nH]1 What is its recorded IC50?
**Result** 4000

====

target-entity: human cGAS (residues 161-522) (Homo sapiens, UniProt Q8N884)
Construct: Recombinantly expressed purified human cGAS (residues 161-522) was used at 25 nM; made in house
measurement-protocol: cGAS Activity Assay—Malachite Green
Type: biochemical
settings: cGAS inhibition; 25 nM cGAS, 80 μM ATP, 80 μM GTP, 100 nM ISD, 4 hour at RT, Malachite Green phosphate detection; read-out: IC50 cGAS
Recorded pIC50 for the following molecules
// field semantics: pIC50 = negative decimal log of concentration (mol/L)

Here's what some known entries look like.
molecule=Cn1ccc(-c2ccc(Cl)c(CNc3nc4[nH]c(CCCC(F)F)cc(=O)n4n3)c2)n1 experimental_result=6.58
molecule=CCCc1cc(=O)n2nc(NCc3cc(-c4cnn(C)c4)ccc3Cl)nc2[nH]1 experimental_result=6.40
molecule=CCCCc1cc(=O)n2nc(NCc3cc(-c4ccn(C)n4)ccc3Cl)nc2[nH]1 experimental_result=6.79
molecule=CCCc1cc(=O)n2nc(NCc3cc(N4CCOCC4)ncc3Cl)nc2[nH]1 experimental_result=5.94
molecule=CCCCc1cc(=O)n2nc(NCc3cnn(-c4cnccn4)c3)nc2[nH]1 experimental_result=5.45
molecule=Cn1ccc(-c2ccc(Cl)c(CNc3nc4[nH]c(C(F)(F)F)cc(=O)n4n3)c2)n1 experimental_result=6.18
molecule=CCCc1cc(=O)n2nc(NCc3ccc(Cl)cc3C)nc2[nH]1 experimental_result=5.03
molecule=O=c1cc(CC(F)(F)F)[nH]c2nc(NCc3ccc(Cl)cc3Cl)nn12 experimental_result=5.35
molecule=CCCc1cc(=O)n2nc(NCc3ccc(-c4ccccc4)cc3)nc2[nH]1 experimental_result=6.17
molecule=CCCc1cc(=O)n2nc(NCc3ccc(OC)cc3Cl)nc2[nH]1 experimental_result=5.02

**Query** Consider the molecule shown here: O=c1cc(CC2CCC2)[nH]c2nc(NCc3ccc(-c4ccccc4)cc3)nn12 What is its recorded pIC50?
**Result** 5.80

**Query** Consider the molecule shown here: CCCc1cc(=O)n2nc(NCc3cc(Nc4nccs4)ccc3Cl)nc2[nH]1 What is its recorded pIC50?
**Result** 6.31

**Query** Consider the molecule shown here: CCCc1cc(=O)n2nc(NCc3cccc(-c4ccccc4)c3)nc2[nH]1 What is its recorded pIC50?
**Result** 5.59

**Query** Consider the molecule shown here: O=c1cc(C2CC2)[nH]c2nc(NCc3ccc(Cl)cc3Cl)nn12 What is its recorded pIC50?
**Result** 5.42
